protocol-description: In vivo pharmacokinetics after intravenous administration to rats
condition-notes: rat; 5 mg/kg intravenous bolus injection, male Sprague-Dawley rats, plasma
Positions of bridges follow the written chain, without caps; N, C: chain ends. Non-standard residues stand in square brackets, D forms with d. Residues, ends and D or L forms follow the SMILES beside them.
reported-endpoint: MRT (min)
Give your result in min as a bare value.

C[C@H](O)[C@@H](NC(=O)[C@H]1CSSC[C@@H](NC(=O)[C@@H](C)NC(=O)[C@H](N)CCC(=O)O)C(=O)NCC(=O)N[C@H](CCCCN)C(=O)N1)C(=O)N[C@H](CCC(=O)O)C(=O)O [Compound 20, EACGKCTE]    23.9

Q. Reported MRT for C[C@H](O)[C@@H](NC(=O)[C@H]1CSSC[C@@H](NC(=O)[C@@H](C)NC(=O)[C@@H](CCC(=O)O)NC(=O)[C@@H](CCCCN)NC(=O)[C@H](N)CO)C(=O)NCC(=O)NCC(=O)N[C@H](CCCCN)C(=O)N1)C(=O)N[C@H](CCC(=O)O)C(=O)NCC(=O)O [Compound 12, SKEACGGKCTEG] (H-[dS][dK][dE][dA][dC]GG[dK][dC][dT][dE]G-OH; disulfide 5-9; N-terminus and C-terminus assumed) : what is it?
A. 22.9

Q. Further, for C[C@@H](NC(=O)[C@@H](CCC(=O)O)NC(=O)[C@H](N)CCCCN)C(=O)N[C@@H]1CSSC[C@H](C(=O)N[C@H](CCC(=O)O)C(=O)N[C@H](CCC(=O)O)C(=O)O)NC(=O)[C@@H](CCCNC(=N)N)NC(=O)[C@@H](C)NC1=O [Compound 14, KEACARCEE] (H-[dK][dE][dA][dC][dA][dR][dC][dE][dE]-OH; disulfide 4-7; N-terminus and C-terminus assumed) ?
A. 19.2
